assay: Nephelometric solubility; format: physicochemical; conditions: DMEM + 10 % FCS, plasma or biological fluid, kinetic from dmso stock, maximal solubility in DMEM + 10 % FCS, 2 % DMSO final; read-out: Solubility 2 % DMSO
measureName: solubility (µM)
Quick reminder: number only, in µM, skip the unit.

Worked set:
1. COc1ccc(-c2coc3cc4oc(=O)c(C)c(C)c4cc23)cc1 | 85
2. CCOC(=O)CCc1c(C)c2ccc(OCC(=O)c3ccc(OC)cc3)cc2oc1=O | 70

Exercise: Field request: solubility | item: COc1ccc(-c2coc3cc4oc(=O)c(CCC(=O)O)c(C)c4cc23)cc1
Key: 50

Exercise: Field request: solubility | item: COc1cccc(-c2ccc(-c3coc4cc5oc(=O)c(CCC(=O)O)c(C)c5cc34)cc2)c1
Key: 70
